- System: HalTzlAGA (synthetic (no organism))
- assay_comment: fluorescence anisotropy
- condition_summary: Fluorescence anisotropy: 100 nM FAM-TAR in TB buffer, 25 °C, 20 min, ex 480/em 518 nm, one-site fit; CD: 5 µM TAR with 50 µM nucleopeptide (Methods; abstract …)
metric: Kd (µM)
The reply should be a number in µM, with the unit left off.

In: Kd for CCAGAUCUGAGCCUGGGAGCUCUCUGG [5'-FAM(6)-TAR UCU] ?
Out: 256

###

- System: HalTzlTCCCAG (synthetic (no organism))
- assay_comment: fluorescence anisotropy
- condition_summary: Fluorescence anisotropy: 100 nM FAM-TAR in TB buffer, 25 °C, 20 min, ex 480/em 518 nm, one-site fit; CD: 5 µM TAR with 50 µM nucleopeptide (Methods; abstract …)
metric: pKd
Conceptually, pKd converts a concentration in mol/L into minus its log10.

In: GET /values?readout=pKd&system=HalTzlTCCCAG (synthetic (no organism))&item= CCAGAUCUGAGCCUGGGAGCUCUCUGG [5'-FAM(6)-TAR UCU]
Out: 4.42
